tested on: hMDR1 and hBCRP; experiment: Brain permeability classification from total ER of hMDR1 and hBCRP against in vivo rodent Kp,uu,brain; conditions: total ER cut-off 3; in vivo rodent Kp,uu,brain cut-off 0.3
Quantity measured: CNS penetration classification based on total ER (hMDR1 + hBCRP)

- Molecule: "CNS(=O)(=O)Cc1ccc2[nH]cc(CCN(C)C)c2c1"
  Assay value: "false negatives"
- Molecule: "Cc1nccn1CC1CCc2c(c3ccccc3n2C)C1=O (centres unmarked)"
  Assay value: "false positives"
- Molecule: "Cc1ccc(-c2ncc(Cl)cc2-c2ccc(S(C)(=O)=O)cc2)cn1"
  Assay value: "false positives"
- Molecule: "CCN(CC)C(=O)/C(C#N)=C/c1cc(O)c(O)c([N+](=O)[O-])c1"
  Assay value: "true positives"
- Molecule: "COc1ccc2c(c1)c(CC(=O)O)c(C)n2C(=O)c1ccc(Cl)cc1"
  Assay value: "true positives"
- Molecule: "OC[C@@H](O)[C@@H](O)[C@H](O)[C@H](O)CO"
  Assay value: "false negatives"

Parameters: items (list). Returns: CNS penetration classification based on total ER (hMDR1 + hBCRP) for each item.
1. COc1cc(Cc2cnc(N)nc2N)cc(OC)c1OC
2. N=C(N)N/N=C/c1c(Cl)cccc1Cl

1: false positives; 2: false positives
